Data credit: PubChem BioAssay AID1159580

test.protocol: chemical genetic growth profiling, strain panel (AID 1159580);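 note: tested at 20 µM; growth read once vehicle control cultures reached saturation at 30 °C; lower values mean less growth of the strain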
conditions: S. cerevisiae deletion strains, growth OD, locus YDR069C, strain doa4
Screen size: about 5,500 compounds; about 2,000 (36%) were called active. Roughly 18% stayed inconclusive and do not appear here. Cut-off read from the data, not from the text of the source: active = normalized growth mostly below about 0.91 (no sharp cut-off); inconclusive = no clear call, values can overlap the other calls; inactive = mostly above about 0.92. The list shows a part of the results.
Your answer must be one of the following: active, inactive

# count of solved cases: 8
[
  {
    "molecule": "C/C(=C\\CO)CC[C@H](C)CCC[C@H](C)CCCC(C)C",
    "answer.label": "active"
  },
  {
    "molecule": "CNC(C)(C)Cc1ccccc1",
    "answer.label": "inactive"
  },
  {
    "molecule": "COc1cc([C@@H]2c3cc4c(cc3[C@H](O)[C@H]3COC(=O)[C@H]23)OCO4)cc(OC)c1OC",
    "answer.label": "inactive"
  },
  {
    "molecule": "CC(C)CCCC(C)N (stereo not drawn)",
    "answer.label": "inactive"
  },
  {
    "molecule": "CC(C)=CCC/C(C)=C/CO",
    "answer.label": "inactive"
  },
  {
    "molecule": "COc1cc(OC)c2c(OC)c(-c3ccc4c(c3)OCO4)c(=O)oc2c1",
    "answer.label": "inactive"
  },
  {
    "molecule": "CC(C)[C@@H]1CC[C@@H](C)C[C@H]1OC(=O)c1ccccc1",
    "answer.label": "inactive"
  },
  {
    "molecule": "CNC(C)[C@@H]1CC[C@@H](N)[C@@H](OC2[C@@H](N)C[C@@H](N)[C@H](OC3OC[C@](C)(O)[C@H](NC)[C@H]3O)[C@H]2O)O1 (stereo partly drawn)",
    "answer.label": "inactive"
  }
]

Next, consider the following molecule.
Identify the outcome logged in this assay for the molecule shown: CC12CCC(O)CC1CCc1ccccc12 (stereo not drawn)
inactive
